Study Target: dog IgG (chrompure dog IgG) (dog)
Quantity: Effective SDA Concentration at A450 0.2
Remember to quote the unit after the number.

Take a look at these entries with their results.
(Q) So what does the record say about Effective SDA Concentration at A450 0.2 for SVT06-GS2-SVG13M4-H6 (bispecific antibody) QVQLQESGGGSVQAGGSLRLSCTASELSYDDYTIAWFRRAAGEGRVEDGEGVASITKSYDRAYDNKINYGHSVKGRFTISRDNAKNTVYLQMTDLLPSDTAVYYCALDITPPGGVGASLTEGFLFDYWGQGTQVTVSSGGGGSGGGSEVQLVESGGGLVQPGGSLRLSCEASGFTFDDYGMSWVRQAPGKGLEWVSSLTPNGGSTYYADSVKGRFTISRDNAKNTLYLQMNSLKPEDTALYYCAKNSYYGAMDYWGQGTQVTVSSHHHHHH ?
(A) 46 ng/mL

(Q) Suppose we examine the binder SVG06L (VHH) VHH: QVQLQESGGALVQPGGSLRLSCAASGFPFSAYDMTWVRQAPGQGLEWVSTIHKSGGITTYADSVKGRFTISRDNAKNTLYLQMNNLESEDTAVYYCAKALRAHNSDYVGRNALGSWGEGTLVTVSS ; what Effective SDA Concentration at A450 0.2 value has been reported?
(A) 164 ng/mL

(Q) Quick check: Effective SDA Concentration at A450 0.2 of SVT15-3FW4M-GS2-SVG13M4-H6 (bispecific antibody) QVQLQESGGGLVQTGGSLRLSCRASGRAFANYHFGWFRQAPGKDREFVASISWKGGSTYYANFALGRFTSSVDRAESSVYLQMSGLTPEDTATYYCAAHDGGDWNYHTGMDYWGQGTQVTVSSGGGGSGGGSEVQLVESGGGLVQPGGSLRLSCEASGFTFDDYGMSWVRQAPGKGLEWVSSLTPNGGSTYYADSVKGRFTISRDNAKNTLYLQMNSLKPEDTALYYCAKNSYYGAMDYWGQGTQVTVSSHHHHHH ?
(A) 63 ng/mL

(Q) Give the measured Effective SDA Concentration at A450 0.2 of SVT16-L123Q-GS2-SVG13M4-H6 (bispecific antibody) QVQLQESGGGSVQAGDSLRLSCAASGRTISNYAMGWFRQAPGKQREFVAAISRSDNTYYTDSVKGRFTISRDNAKNTLYLQMNSLKPEETAVYYCAADPNLMYESKWKYRALEAWGQGTQVTVSSGGGGSGGGSEVQLVESGGGLVQPGGSLRLSCEASGFTFDDYGMSWVRQAPGKGLEWVSSLTPNGGSTYYADSVKGRFTISRDNAKNTLYLQMNSLKPEDTALYYCAKNSYYGAMDYWGQGTQVTVSSHHHHHH .
(A) 127 ng/mL

Next, consider the following binder.
(Q) Endpoint output: Effective SDA Concentration at A450 0.2 of SVT06-SVT16-L123Q-GS2-SVG13M4-H6 (bispecific antibody, also called pRL501) QVQLQESGGGSVQAGGSLRLSCTASELSYDDYTIAWFRRAAGEGRVEDGEGVASITKSYDRAYDNKINYGHSVKGRFTISRDNAKNTVYLQMTDLLPSDTAVYYCALDITPPGGVGASLTEGFLFDYWGQGTQVTVSSQVQLQESGGGSVQAGDSLRLSCAASGRTISNYAMGWFRQAPGKQREFVAAISRSDNTYYTDSVKGRFTISRDNAKNTLYLQMNSLKPEETAVYYCAADPNLMYESKWKYRALEAWGQGTQVTVSSGGGGSGGGSEVQLVESGGGLVQPGGSLRLSCEASGFTFDDYGMSWVRQAPGKGLEWVSSLTPNGGSTYYADSVKGRFTISRDNAKNTLYLQMNSLKPEDTALYYCAKNSYYGAMDYWGQGTQVTVSSHHHHHH . Value?
(A) 134 ng/mL
